The reported measurements were obtained from patent US20150315188A1.

target: Human adrenergic α2B receptor (Homo sapiens); experiment: Radioligand binding, adrenergic α2B (Protocol Group B); design: purchased Milipore (Millipore); settings: 0.1 μM compound; Protocol Group B; 0.1 µM
Sequence (P18089 whole entry): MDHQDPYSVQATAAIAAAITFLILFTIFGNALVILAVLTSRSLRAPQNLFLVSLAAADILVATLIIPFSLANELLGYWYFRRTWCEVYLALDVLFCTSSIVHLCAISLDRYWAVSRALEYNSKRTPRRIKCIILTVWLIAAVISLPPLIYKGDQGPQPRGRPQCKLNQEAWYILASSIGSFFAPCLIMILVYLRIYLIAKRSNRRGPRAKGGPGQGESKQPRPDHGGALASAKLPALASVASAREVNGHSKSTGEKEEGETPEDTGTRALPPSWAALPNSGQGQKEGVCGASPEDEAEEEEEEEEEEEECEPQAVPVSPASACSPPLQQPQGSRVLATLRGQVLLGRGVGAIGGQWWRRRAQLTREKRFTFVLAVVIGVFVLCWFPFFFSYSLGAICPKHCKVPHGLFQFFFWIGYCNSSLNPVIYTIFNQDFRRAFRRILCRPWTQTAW
Tick YES if Percentage inhibition of ligand binding, Adrenergic α2B (0.1 μM) is 80% or greater. Tick NO if Percentage inhibition of ligand binding, Adrenergic α2B (0.1 μM) is less than 80%.

Compound	Label
Cc1ccc2c(c1)c1c(n2CC(C)(O)c2ccnc(F)c2)CCN2CCCC12 (single isomer, unassigned) [48b]	YES
CC(O)(Cn1c2c(c3cc(Cl)cc(F)c31)C1CCCN1CC2)c1cccnc1 (single isomer, unassigned) [53b]	YES
Cc1ccc2c(c1)c1c(n2CC(O)c2ccncc2F)CCN2CCCC12 (single isomer, unassigned) [14b]	YES
CC(O)(Cn1c2c(c3cc(Cl)cc(F)c31)C1CCCN1CC2)c1cccnc1 (single isomer, unassigned) [53d]	NO
CC(O)(Cn1c2c(c3cc(C(F)(F)F)ccc31)C1CCCN1CC2)c1cccnc1 (single isomer, unassigned) [64b]	NO
CC(O)(Cn1c2c(c3cc(F)ccc31)C1CCCN1CC2)c1ccncc1 (single isomer, unassigned) [31b]	YES

====

molecular target: Human adrenergic α2B receptor (Homo sapiens); assay: Radioligand binding, adrenergic α2B (Protocol Group B); set-up: purchased Milipore (Millipore); details: 30 nM compound; Protocol Group B; 0.03 µM
Reported Property: Percentage inhibition of ligand binding, Adrenergic α2B (30 nM) (%)

Compound	Reported
CC(O)(Cn1c2c(c3cc(F)ccc31)C1CCCN1CC2)c1cccnc1 (stereo not drawn) [51b]	69
CN1CCc2c(c3cc(CCO)ccc3n2CC(O)c2ccncc2)C1 (single isomer, unassigned) [140a]	−12
Cc1cc(F)c2c(c1)c1c(n2CC(C)(O)c2ccncc2)CCN2CCCC12 (single isomer, unassigned) [81d]	8
Cc1ccc2c(c1)c1c(n2CC(O)c2ccncc2)CNC2CCCC12 (single isomer, unassigned) [34a]	−12
CC(O)(Cn1c2c(c3cc(F)cc(Cl)c31)C1CCCN1CC2)c1ccncc1 (single isomer, unassigned) [88b]	90
Cc1cc(C)c2c(c1)c1c(n2CC(C)(O)c2ccncc2)CCN2CCCC12 (single isomer, unassigned) [19d]	−4
Cc1cc(C)c2c(c1)c1c(n2CC(C)(O)c2ccncc2)CCN2CCCC12 (single isomer, unassigned) [19c]	−12
Cc1ccc2c(c1)c1c(n2CC(OCC2CCC2)c2ccncc2)CCN2CCCC12 (single isomer, unassigned) [138c]	−9
Cc1cc(F)cc2c3c(n(CC(C)(O)c4ccncc4)c12)CC1CCCN1C3 (single isomer, unassigned) [78d]	−3
Cc1ccc2c(c1F)c1c(n2CC(C)(O)c2cccnc2)CCN2CCCC12 (single isomer, unassigned) [87b]	66
Cc1ccc2c(c1)c1c(n2CC(O)c2ccncc2)CNC2CCCC12 (single isomer, unassigned) [34b]	6
Cc1ccc2c(c1)c1c(n2CC(C)(O)c2ccc(F)cc2)CC2CCC1N2C (single isomer, unassigned) [102c]	−5
Cc1cc(F)cc2c3c(n(CC(C)(O)c4ccncc4)c12)CCN1CCCC31 (single isomer, unassigned) [77b]	12
Cc1ccc2c(c1)c1c(n2CC(C)(O)c2cccnc2)CC2CCC1N2C (single isomer, unassigned) [101d]	−3
Cc1cc(F)c2c(c1)c1c(n2CC(C)(O)c2ccncc2)CC2CCCN2C1 (single isomer, unassigned) [62b]	32
CN1CCc2c(c3cc(CCO)ccc3n2CC(O)c2ccncc2)C1 (single isomer, unassigned) [140b]	56
Cc1cc(F)cc2c3c(n(CC(C)(O)c4cccnc4)c12)CCN1CCCC31 (single isomer, unassigned) [75d]	79
Cc1ccc2c(c1)c1c(n2CC(C)(O)c2cccnc2)CC2CCCN2C1 (stereo not drawn) [38a]	11
Cc1ccc2c(c1)c1c(n2CC(C)(O)c2ccnc(F)c2)CCN2CCCC12 (single isomer, unassigned) [48b]	93
CC(O)(Cn1c2c(c3cc(C(F)(F)F)ccc31)C1CCCN1CC2)c1cccnc1 (single isomer, unassigned) [64a]	91
CC(O)(Cn1c2c(c3cc(Cl)cc(F)c31)CN1CCCC1C2)c1cccnc1 (single isomer, unassigned) [63b]	−3
Cc1cc(C)c2c(c1)c1c(n2CC(C)(O)c2cccnc2)CCN2CCCC12 (single isomer, unassigned) [44b]	98
OC(Cn1c2c(c3cc(F)ccc31)C1CCCN1CC2)c1ccncc1 (single isomer, unassigned) [18c]	13
Cc1ccc2c(c1)c1c(n2CC(O)c2ccncc2)CNC2CCCC12 (single isomer, unassigned) [34d]	2
Cc1ccc2c(c1F)c1c(n2CC(C)(O)c2cccnc2)CCN2CCCC12 (single isomer, unassigned) [87c]	99
CC(O)(Cn1c2c(c3cc(Cl)cc(F)c31)C1CCCN1CC2)c1cccnc1 (single isomer, unassigned) [53c]	4
Cc1ccc2c(c1)c1c(n2CC(O)c2ccccn2)CC2CCCN2C1 (single isomer, unassigned) [45c]	4
Cc1ccc2c(c1)c1c(n2CC(O)c2ccccn2)CC2CCCN2C1 (single isomer, unassigned) [45d]	0
Cc1ccc2c(c1)c1c(n2CC(O)c2ccncc2)CN(C)C2CCCC12 (single isomer, unassigned) [36a]	−5
Cc1ccc2c(c1)c1c(n2CC(C)(O)c2cccnc2)CCN(C)C1CO (single isomer, unassigned) [16b]	−11
